target desc: GST-SND1(1-203) (Arabidopsis thaliana, UniProt Q9LPI7 1-203)
Sequence: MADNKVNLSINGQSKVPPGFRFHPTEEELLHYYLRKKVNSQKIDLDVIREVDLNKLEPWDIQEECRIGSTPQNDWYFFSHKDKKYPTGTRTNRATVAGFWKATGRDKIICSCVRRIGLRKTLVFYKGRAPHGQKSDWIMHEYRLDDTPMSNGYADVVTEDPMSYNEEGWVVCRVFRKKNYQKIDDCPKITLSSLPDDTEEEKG
protocol description: universal protein binding microarray (PBM); high values mean tight binding
conditions used: protein: recombinant; tags: GST; chain copies: 2; dsDNA, one strand shown
Decision: binding signal compared against 0.3 E-score; not below it gives 1, below it gives -1.

CTTCCTTA = -1
ACGCCACG = -1
ACGTTACA = 1
CACGTTAA = 1

Task: Decide: is the reported value of binding signal for CCAAGTCA equal to or greater than 0.3 E-score?
Result: -1

Task: Decide: is the reported value of binding signal for AAACGTGT equal to or greater than 0.3 E-score?
Result: -1

Task: Decide: is the reported value of binding signal for ACTTAACC equal to or greater than 0.3 E-score?
Result: -1

Task: Decide: is the reported value of binding signal for GCACTCAA equal to or greater than 0.3 E-score?
Result: -1

Task: Decide: is the reported value of binding signal for GTCAGTCA equal to or greater than 0.3 E-score?
Result: -1

Task: Decide: is the reported value of binding signal for GGCGTCAA equal to or greater than 0.3 E-score?
Result: -1

Task: Decide: is the reported value of binding signal for CAAAAGTC equal to or greater than 0.3 E-score?
Result: -1

Task: Decide: is the reported value of binding signal for CTTGCTTA equal to or greater than 0.3 E-score?
Result: 1

Task: Decide: is the reported value of binding signal for GCGTGTTA equal to or greater than 0.3 E-score?
Result: -1

Task: Decide: is the reported value of binding signal for AGGAAAGG equal to or greater than 0.3 E-score?
Result: -1

Task: Decide: is the reported value of binding signal for CGAAGCAA equal to or greater than 0.3 E-score?
Result: 1

====

target desc: GST-ANAC055(1-171) (Arabidopsis thaliana, UniProt Q9LDY8 1-171)
Sequence: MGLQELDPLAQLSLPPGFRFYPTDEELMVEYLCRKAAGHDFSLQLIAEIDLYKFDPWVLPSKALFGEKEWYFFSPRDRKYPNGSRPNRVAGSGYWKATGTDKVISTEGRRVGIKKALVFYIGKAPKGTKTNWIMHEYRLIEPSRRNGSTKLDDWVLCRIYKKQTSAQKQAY
protocol description: universal protein binding microarray (PBM); transcription factors of Arabidopsis thaliana; high values mean tight binding
conditions used: protein: recombinant; tags: GST; chain copies: 2; dsDNA, one strand shown
Decision: binding signal compared against 0.2 E-score; not below it gives true, below it gives false.

Take a look at these entries with their results.
TTAAGTAA = false
GCACGTCA = true
GGTCAAAA = false
AACACGCA = true
ACTTTCCT = false
AAGCAAAC = false
ATACGCCA = true
AGTCTTTG = false
CACGCATC = true
GCAAGCAA = false

Task: Decide: is the reported value of binding signal for ACGTCATC equal to or greater than 0.2 E-score?
Result: true

Task: Decide: is the reported value of binding signal for TAAGTCAA equal to or greater than 0.2 E-score?
Result: false

Task: Decide: is the reported value of binding signal for GAAGTAAA equal to or greater than 0.2 E-score?
Result: false

Task: Decide: is the reported value of binding signal for CTGGCGTA equal to or greater than 0.2 E-score?
Result: false

Task: Decide: is the reported value of binding signal for GCACGCTA equal to or greater than 0.2 E-score?
Result: false
